src = patent US20240190854A1

Target: HCN4 (Homo sapiens (Human), UniProt Q9Y3Q4)
Sequence (Q9Y3Q4 whole entry, species assumed): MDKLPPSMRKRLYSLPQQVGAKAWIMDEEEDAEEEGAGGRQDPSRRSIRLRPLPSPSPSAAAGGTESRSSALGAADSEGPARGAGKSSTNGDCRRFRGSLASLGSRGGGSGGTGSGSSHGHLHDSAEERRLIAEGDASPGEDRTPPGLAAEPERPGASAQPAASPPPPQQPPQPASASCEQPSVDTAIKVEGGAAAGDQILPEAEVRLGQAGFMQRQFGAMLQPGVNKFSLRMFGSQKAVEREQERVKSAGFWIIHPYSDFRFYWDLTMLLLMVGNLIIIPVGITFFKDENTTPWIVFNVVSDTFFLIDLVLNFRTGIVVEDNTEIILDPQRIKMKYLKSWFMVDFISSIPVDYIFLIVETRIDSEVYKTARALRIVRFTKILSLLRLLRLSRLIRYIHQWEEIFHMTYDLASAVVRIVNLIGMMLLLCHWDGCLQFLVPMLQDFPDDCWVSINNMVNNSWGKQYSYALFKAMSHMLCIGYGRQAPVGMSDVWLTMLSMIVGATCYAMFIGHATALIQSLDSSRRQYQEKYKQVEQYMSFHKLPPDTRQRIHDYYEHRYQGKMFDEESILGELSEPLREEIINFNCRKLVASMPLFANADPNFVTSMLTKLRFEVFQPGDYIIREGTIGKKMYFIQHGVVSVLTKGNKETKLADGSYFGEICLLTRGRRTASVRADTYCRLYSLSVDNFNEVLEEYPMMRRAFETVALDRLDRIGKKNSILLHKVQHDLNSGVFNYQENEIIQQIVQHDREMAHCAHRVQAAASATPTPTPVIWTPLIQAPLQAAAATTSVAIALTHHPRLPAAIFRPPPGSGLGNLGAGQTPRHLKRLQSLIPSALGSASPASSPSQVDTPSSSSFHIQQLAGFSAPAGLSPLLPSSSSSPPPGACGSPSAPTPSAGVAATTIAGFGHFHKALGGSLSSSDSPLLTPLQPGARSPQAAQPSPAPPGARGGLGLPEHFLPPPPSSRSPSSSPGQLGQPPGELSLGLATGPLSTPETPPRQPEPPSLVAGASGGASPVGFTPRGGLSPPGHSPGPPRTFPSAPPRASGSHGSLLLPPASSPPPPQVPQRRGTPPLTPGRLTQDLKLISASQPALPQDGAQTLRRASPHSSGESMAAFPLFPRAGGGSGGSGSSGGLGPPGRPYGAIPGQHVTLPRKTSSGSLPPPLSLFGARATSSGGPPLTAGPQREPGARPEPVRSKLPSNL
Experiment: HCN4 current assay using PatchXpress 7000A
Format: cell-based
Conditions: PatchXpress protocol; read-out: PX HCN4 IC50
Structures can show the parent of a compound that is named as a salt.
Criterion: IC50 strictly under 8 µM. Met: 1. Not met: -1.

N[C@@H](Cc1nc(-c2cn[nH]c2)ccc1F)c1ccccc1-c1noc2ccccc12 [Example 78, hydrochloride] : -1
Cc1ccc(C[C@H](N)c2ccccc2-c2noc3ccccc23)nc1 [Example 92, hydrochloride] : -1
CN(C)C(=O)c1cccc(C[C@H](N)c2ccccc2-c2noc3ccccc23)n1 [Example 89, hydrochloride] : -1
CC(c1ccccn1)C(N)c1ccccc1-c1noc2ccccc12 (single isomer, unassigned; diastereomer 2) [Example 2] : -1
N[C@@H](Cc1ccccn1)c1ccccc1-c1noc2cc(CO)ccc12 [Example 30, hydrochloride] : -1

Inquiry: Please state whether IC50 is below 8 µM for CS(=O)(=O)c1cccc(C[C@H](N)c2ccccc2-c2noc3ccccc23)n1
Reply text: -1

Inquiry: Lab note: IC50 threshold 8 µM. Does this molecule come in strictly under it? N[C@@H](Cc1cccc(CO)n1)c1ccccc1-c1noc2ccccc12 [Example 98, hydrochloride]
Reply text: -1

Inquiry: Determine if Cn1cc(-c2cccc(C[C@H](N)c3ccccc3-c3noc4ccccc34)n2)cn1 [Example 90, hydrochloride] shows IC50 strictly lower than 8 µM.
Reply text: 1

Inquiry: Consider the molecule N#Cc1ccc(F)c(C[C@H](N)c2ccccc2-c2noc3ccccc23)n1 [Example 71, formate] . Is its IC50 strictly less than 8 µM?
Reply text: 1

Inquiry: Would you kindly verify if IC50 of N[C@@H](Cc1cccc(-c2cn[nH]c2)n1)c1ccccc1-c1noc2ccccc12 [Example 91, hydrochloride] is strictly less than 8 µM?
Reply text: -1
